Read-out: Matrix Metallopeptidase 1 (MMP1), MMP1 (gene 4312)
Experiment: BSK_BE3C_MMP1: BioMAP Diversity Plus: BE3C Assay for Matrix Metallopeptidase 1 (MMP1) Biomarker Activity (AID 2283024)
Conditions: primary human bronchial epithelial cells; actives raise or lower the signal
Active and inactive are the calls of the source. Rule for the calls: active = hit-call score of the fitted dose curve at least 0.9, where 1 is the maximum; inactive = score below 0.9.
Pick from Yes for active, No for inactive when you respond.

Query block: Recorded test outcome, item "CCCCCc1ccc(N)cc1"
Result block: No

Query block: Per the assay record, what outcome was assigned to "C[C@]12CC[C@@H]3c4ccc(O)cc4CC[C@H]3[C@@H]1CC[C@H]2O" ?
Result block: No

Query block: State the result this test recorded for "O=c1ccc2ccccc2o1" .
Result block: No

Query block: Would you mind telling me which call this test gave "CC/C(=C(/CC)c1ccc(O)cc1)c1ccc(O)cc1" ?
Result block: Yes

Query block: Per the records of this test, what outcome belongs to "NCc1cccc(C2CCN(C(=O)c3ccc(C#Cc4ccccc4F)o3)CC2)c1" ?
Result block: Yes

Query block: Recorded call for "CC(C)(C)c1csc(-c2cc3cc(OCc4ccccc4CC(=O)O)ccc3o2)n1" ?
Result block: Yes

Query block: Write down the call the test reported for this compound. Item: "O=C(O)c1ccccc1C(=O)OCc1ccccc1"
Result block: No

Query block: Hi, sorry to bother you, what did the test record for "O=C(O)Cn1c(=O)n(Cc2ccc(Br)cc2F)c(=O)c2ccc(Cl)cc21" ?
Result block: No

Query block: Per the records of this test, what outcome belongs to "CCCC(=O)OCCC(C)C" ?
Result block: No

Query block: What call does the record list for CN1C(=O)N(c2ccccc2Br)Cc2cnc(Nc3ccc4c(c3)OCC(CO)O4)nc21 (configuration not stated) ?
Result block: Yes

Query block: Could you kindly confirm the outcome this assay logged for COCC(C)OCC(C)OCC(C)O (configuration not stated) ?
Result block: No

Query block: Record request — test call for "CCCCCCCCCCCC[N+](C)(C)C"
Result block: Yes

====

Read-out: Pselectin, SELP (gene 6403)
Assay: BSK_4H_Pselectin: BioMAP Diversity Plus: 4H Assay for Pselectin Biomarker Activity (AID 2283026)
Conditions: primary human endothelial cells (HUVEC); actives raise or lower the signal
Activity calls are given as the source filed them. Rule for the calls: active = hit-call score of the fitted dose curve at least 0.9, where 1 is the maximum; inactive = score below 0.9.
# valid calls are active, inactive; nothing else

Query block: Dear colleague, could you share the recorded outcome for "CC(=O)N1CCN(c2ccc(OC[C@H]3CO[C@](Cn4ccnc4)(c4ccc(Cl)cc4Cl)O3)cc2)CC1" when you have a moment?
Result block: active

Query block: What outcome does the record of this test show for "COc1ccc2cc(S(=O)(=O)N[C@H](CC(=O)N[C@H](Cc3ccc(CN4[C@H](C)CCC[C@@H]4C)cc3)C(=O)N(C)C(C)C)c3ccc4c(c3)OCO4)ccc2c1" ?
Result block: active

Query block: Hi, do you know how "O=C(Nc1ccc(Cl)cc1)Nc1ccc(Cl)c(Cl)c1" came out in this test?
Result block: active

Query block: For "Cc1ccc(C(C)C)cc1" , which call appears in the assay record?
Result block: inactive

Query block: # lookup: test call for "Cc1cn([C@H]2C[C@H](N=[N+]=[N-])[C@@H](CO)O2)c(=O)[nH]c1=O"
Result block: inactive

Query block: Would you mind telling me which call this test gave "CC/C(=C(/CC)c1ccc(O)cc1)c1ccc(O)cc1" ?
Result block: active

Query block: // return assay outcome for "CC[C@@H]1C[C@H](N(Cc2cc(C(F)(F)F)cc(C(F)(F)F)c2)C(C)=O)c2cc(C(F)(F)F)ccc2N1C(=O)OC(C)C"
Result block: inactive

Query block: Please share the test call associated with "O=C(O)Cc1cc(I)c(Oc2ccc(O)c(I)c2)c(I)c1" .
Result block: inactive

Query block: Hi, sorry to bother you, what did the test record for "Cc1c2ccccc2c(C)c2c1ccc1ccccc12" ?
Result block: active
